Would you kindly list protein stability index for each of these sequences?
System: Saccharomyces cerevisiae;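 further: PSI is a weighted mean of sequencing reads over stability bins, variants kept only with over 10 reads, mCherry proximal and sfGFP distal, peptide attached via GGGS linker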
protocol details: protein stability index of tFT-peptide fusion (C-terminal peptide) (PSI (0-1 scale)); higher = more stable (slower turnover)
condition: genetic background: wild type; temperature: 30 C
The response must contain the number and no unit.

Form: sequence = HPKASNSLRFSS ; protein stability index = 0.649

Form: sequence = GPSTPPPRAPGT ; protein stability index = 0.704

Form: sequence = STPRTPNFPATA ; protein stability index = 0.706

Form: sequence = TNTRKIINMEKQ ; protein stability index = 0.717

Form: sequence = FSSFVVVGCWPR ; protein stability index = 0.625

Form: sequence = REAPPYQSHVAS ; protein stability index = 0.676

Form: sequence = HKDVRGRSLSRM ; protein stability index = 0.718

Form: sequence = VGRSRNGAQSNR ; protein stability index = 0.65

Form: sequence = LPFPSPLPSPPP ; protein stability index = 0.702

Form: sequence = MYESIRILVNKV ; protein stability index = 0.457
